tested on: E. coli ATCC 25922; test: NPN uptake assay (outer membrane); type: cell-based; conditions: E. coli ATCC 25922, 5 mM HEPES pH 7.2, 10 µM NPN, fluorescence
Square brackets hold non-standard residues; d marks the D form. Peptide text beside a SMILES is read from it. Gly(N(CH2)2(3-indolyl)) = O=C(O)CNCCc1c[nH]c2ccccc12; Nspe = C[C@H](NCC(=O)O)c1ccccc1; Nlys = NCCCCNCC(=O)O
MEASUREMENT KIND: outer membrane disruption (NPN uptake)

[[record]]
compound = "C[C@@H](c1ccccc1)N(CC(N)=O)C(=O)CN(C(=O)CN(CCCCN)C(=O)CN(C(=O)CN(C(=O)CN(CCCCN)C(=O)CN(C(=O)CN(C(=O)CN(CCCCN)C(=O)CN(C(=O)CN(C(=O)CNCCCCN)[C@@H](C)c1ccccc1)[C@@H](C)c1ccccc1)[C@@H](C)c1ccccc1)[C@@H](C)c1ccccc1)[C@@H](C)c1ccccc1)[C@@H](C)c1ccccc1)[C@@H](C)c1ccccc1 [peptoid 1, reference compound] (H-[Nlys][Nspe][Nspe][Nlys][Nspe][Nspe][Nlys][Nspe][Nspe][Nlys][Nspe][Nspe]-NH2)"
measurement_kind = "outer membrane disruption (NPN uptake)"
result = "strongly disrupted"

[[record]]
compound = "C[C@@H](c1ccccc1)N(CC(N)=O)C(=O)CN(C(=O)CN(CCCCN)C(=O)CN(C(=O)CN(C(=O)CN(CCCCN)C(=O)CN(C(=O)CN(C(=O)CN(CCCCN)C(=O)CN(CCc1c[nH]c2ccccc12)C(=O)CN(C(=O)CNCCCCN)[C@@H](C)c1ccccc1)[C@@H](C)c1ccccc1)[C@@H](C)c1ccccc1)[C@@H](C)c1ccccc1)[C@@H](C)c1ccccc1)[C@@H](C)c1ccccc1 [peptoid 10]"
measurement_kind = "outer membrane disruption (NPN uptake)"
result = "strongly disrupted"

[[record]]
compound = "C[C@@H](c1ccccc1)N(CC(N)=O)C(=O)CN(CCCCN)C(=O)CN(CCCCN)C(=O)CN(C(=O)CN(C(=O)CN(CCCCN)C(=O)CN(C(=O)CN(C(=O)CN(CCCCN)C(=O)CN(CCc1c[nH]c2ccccc12)C(=O)CN(CCc1c[nH]c2ccccc12)C(=O)CNCCCCN)[C@@H](C)c1ccccc1)[C@@H](C)c1ccccc1)[C@@H](C)c1ccccc1)[C@@H](C)c1ccccc1 [peptoid 32]"
measurement_kind = "outer membrane disruption (NPN uptake)"
result = "somewhat lower"

[[record]]
compound = "C[C@@H](c1ccccc1)N(CC(N)=O)C(=O)CN(C(=O)CN(CCCCN)C(=O)CN(C(=O)CN(C(=O)CN(CCCCN)C(=O)CN(C(=O)CN(C(=O)CN(CCCCN)C(=O)CN(CCc1c[nH]c2ccccc12)C(=O)CN(CCc1c[nH]c2ccccc12)C(=O)CNCCCCN)[C@@H](C)c1ccccc1)[C@@H](C)c1ccccc1)[C@@H](C)c1ccccc1)[C@@H](C)c1ccccc1)[C@@H](C)c1ccccc1 [peptoid 14]"
measurement_kind = "outer membrane disruption (NPN uptake)"
result = "strongly disrupted"

[[record]]
compound = "C[C@@H](c1ccccc1)N(CC(=O)N(CCCCN)CC(=O)N(CCc1c[nH]c2ccccc12)CC(=O)N(CCc1c[nH]c2ccccc12)CC(N)=O)C(=O)CN(CCCCN)C(=O)CN(CCCCN)C(=O)CN(C(=O)CN(C(=O)CN(CCCCN)C(=O)CN(C(=O)CN(C(=O)CNCCCCN)[C@@H](C)c1ccccc1)[C@@H](C)c1ccccc1)[C@@H](C)c1ccccc1)[C@@H](C)c1ccccc1 [peptoid 29] (H-[Nlys][Nspe][Nspe][Nlys][Nspe][Nspe][Nlys][Nlys][Nspe][Nlys][Gly(N(CH2)2(3-indolyl))][Gly(N(CH2)2(3-indolyl))]-NH2)"
measurement_kind = "outer membrane disruption (NPN uptake)"
result = "somewhat lower"


input: // fetch outer membrane disruption (NPN uptake) given entry C[C@@H](c1ccccc1)N(CC(=O)N(CCCCN)CC(=O)N(CC(=O)N(CC(=O)N(CCCCN)CC(=O)N(CC(=O)N(CC(=O)N(CCCCN)CC(=O)N(CCc1c[nH]c2ccccc12)CC(=O)N(CCc1c[nH]c2ccccc12)CC(N)=O)[C@@H](C)c1ccccc1)[C@@H](C)c1ccccc1)[C@@H](C)c1ccccc1)[C@@H](C)c1ccccc1)C(=O)CN(C(=O)CNCCCCN)[C@@H](C)c1ccccc1 [peptoid 11] (H-[Nlys][Nspe][Nspe][Nlys][Nspe][Nspe][Nlys][Nspe][Nspe][Nlys][Gly(N(CH2)2(3-indolyl))][Gly(N(CH2)2(3-indolyl))]-NH2)
output: strongly disrupted

The origin of these recorded values is paper PMC10460844.
